# Assay System: human wild type STING (WT STING) (Homo sapiens, UniProt Q86WV6, H232R)
# Sequence (Q86WV6 whole entry H232R): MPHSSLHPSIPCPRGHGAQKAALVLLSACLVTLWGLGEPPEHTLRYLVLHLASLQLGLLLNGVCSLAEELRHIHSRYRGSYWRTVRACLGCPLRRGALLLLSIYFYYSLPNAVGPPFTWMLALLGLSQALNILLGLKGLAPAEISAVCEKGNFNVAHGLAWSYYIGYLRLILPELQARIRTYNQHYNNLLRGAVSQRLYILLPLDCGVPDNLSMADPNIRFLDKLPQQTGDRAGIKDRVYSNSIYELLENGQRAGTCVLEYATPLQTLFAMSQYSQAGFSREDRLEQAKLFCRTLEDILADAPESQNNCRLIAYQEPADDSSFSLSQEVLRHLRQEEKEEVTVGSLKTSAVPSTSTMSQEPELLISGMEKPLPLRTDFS
# Assay Details: Digitonin assay using 293T wtSTING-FL reporter cells (ISRE firefly luciferase reporter)
# Condition Notes: 293T wtSTING-FL cells; 30 min in Digitonin buffer, then 5 hours; luciferase read-out; 8-point dose-response curve; read-out: Digitonin assay EC50 (μmol · l^−1) WT STING
Measured Property: EC50 (µM)

Answered examples (3):
Nc1nc(N)c2ncn([C@@H]3O[C@@H]4COP(=O)(O)CO[C@H]5[C@@H](O)[C@H](n6cnc7c(N)ncnc76)O[C@@H]5COP(=O)(O)O[C@@H]3[C@@H]4F)c2n1 ... 0.053
Nc1nc2c(ncn2[C@@H]2O[C@@H]3COP(=O)(O)CO[C@H]4C[C@H](n5cnc6c(N)ncnc65)O[C@@H]4COP(=O)(O)O[C@@H]2[C@@H]3O)c(=O)[nH]1 ... 0.01
Nc1nc2c(ncn2[C@@H]2O[C@@H]3COP(=O)(O)O[C@H]4[C@@H](O)[C@H](n5cnc6c(N)ncnc65)O[C@@H]4COP(=O)(O)CO[C@@H]2[C@@H]3O)c(=O)[nH]1 ... 3

a. Nc1ncnc2c1ncn2[C@@H]1O[C@@H]2COP(=O)(O)CO[C@@H]3[C@H](O)[C@@H](COP(=O)(O)O[C@H]2[C@H]1O)O[C@H]3n1cnc2c(N)ncnc21
b. Nc1ncnc2c1ncn2[C@@H]1O[C@@H]2COP(=O)(O)O[C@@H]3[C@H](O)[C@@H](COP(=O)(O)CO[C@H]2[C@@H]1O)O[C@H]3n1cnc2c(N)ncnc21
Which has the higher EC50, a or b ? Let me know the label of the one you choose.
a
(a: 5.9 µM, b: 2.5 µM)

The origin of these recorded values is patent US11149052B2.
